List of melting point values.

Smi	melting point
O=C(Cc1cccc2ccccc12)NNC(=S)Nc1ccc(N=Nc2ccccc2)cc1	178 to 180 °C
CC(C)c1cccc(C(C)C)c1NC(=S)NNC(=O)Cc1cccc2ccccc12	140 to 142 °C
Cc1cccc(C(=O)NC(=S)NNC(=O)c2ccc(O)c([N+](=O)[O-])c2)c1	190 to 192 °C
O=C(Cc1cccc2ccccc12)NNC(=S)NC(=O)c1ccccc1Cl	174 to 176 °C
O=C(Cc1cccc2ccccc12)NNC(=S)Nc1c(F)cccc1F	186 to 188 °C

----------
- System: Human normal skin fibroblasts (CRL-2072)
- Measurement protocol: BrdU assay
- Assay type: cell-based
- Conditions used: Skin fibroblast, 24 h, read-out: IC50 ± SD, antiproliferative activity
Recorded IC50 by entry
Attribute measured: IC50

Compound	Value reported
O=C(NNC(=S)Nc1ccc(N=Nc2ccccc2)cc1)c1ccccc1[N+](=O)[O-]	32.1 µg/mL
O=C(Cc1cccc2ccccc12)NNC(=S)Nc1ccc(N=Nc2ccccc2)cc1	24.2 µg/mL
COc1cc([C@@H]2c3cc4c(cc3[C@@H](O[C@@H]3O[C@@H]5CO[C@@H](C)O[C@H]5[C@H](O)[C@H]3O)[C@H]3COC(=O)[C@H]23)OCO4)cc(OC)c1O [Etoposide, etoposide, reference compound]	55.7 µg/mL
CC(C)c1cccc(C(C)C)c1NC(=S)NNC(=O)Cc1cccc2ccccc12	22.4 µg/mL
